# TEST SYSTEM: T1, PTPRG, endogenous in H929 multiple myeloma cells (human, UniProt P23470 20-1445)
# T1 construct: Native protein on H929 cells (flow cytometry, siRNA knockdown) and in H929 lysates (IP/MS); also called phosphatase receptor type γ
# T1 sequence (P23470 20-1445 limits assumed): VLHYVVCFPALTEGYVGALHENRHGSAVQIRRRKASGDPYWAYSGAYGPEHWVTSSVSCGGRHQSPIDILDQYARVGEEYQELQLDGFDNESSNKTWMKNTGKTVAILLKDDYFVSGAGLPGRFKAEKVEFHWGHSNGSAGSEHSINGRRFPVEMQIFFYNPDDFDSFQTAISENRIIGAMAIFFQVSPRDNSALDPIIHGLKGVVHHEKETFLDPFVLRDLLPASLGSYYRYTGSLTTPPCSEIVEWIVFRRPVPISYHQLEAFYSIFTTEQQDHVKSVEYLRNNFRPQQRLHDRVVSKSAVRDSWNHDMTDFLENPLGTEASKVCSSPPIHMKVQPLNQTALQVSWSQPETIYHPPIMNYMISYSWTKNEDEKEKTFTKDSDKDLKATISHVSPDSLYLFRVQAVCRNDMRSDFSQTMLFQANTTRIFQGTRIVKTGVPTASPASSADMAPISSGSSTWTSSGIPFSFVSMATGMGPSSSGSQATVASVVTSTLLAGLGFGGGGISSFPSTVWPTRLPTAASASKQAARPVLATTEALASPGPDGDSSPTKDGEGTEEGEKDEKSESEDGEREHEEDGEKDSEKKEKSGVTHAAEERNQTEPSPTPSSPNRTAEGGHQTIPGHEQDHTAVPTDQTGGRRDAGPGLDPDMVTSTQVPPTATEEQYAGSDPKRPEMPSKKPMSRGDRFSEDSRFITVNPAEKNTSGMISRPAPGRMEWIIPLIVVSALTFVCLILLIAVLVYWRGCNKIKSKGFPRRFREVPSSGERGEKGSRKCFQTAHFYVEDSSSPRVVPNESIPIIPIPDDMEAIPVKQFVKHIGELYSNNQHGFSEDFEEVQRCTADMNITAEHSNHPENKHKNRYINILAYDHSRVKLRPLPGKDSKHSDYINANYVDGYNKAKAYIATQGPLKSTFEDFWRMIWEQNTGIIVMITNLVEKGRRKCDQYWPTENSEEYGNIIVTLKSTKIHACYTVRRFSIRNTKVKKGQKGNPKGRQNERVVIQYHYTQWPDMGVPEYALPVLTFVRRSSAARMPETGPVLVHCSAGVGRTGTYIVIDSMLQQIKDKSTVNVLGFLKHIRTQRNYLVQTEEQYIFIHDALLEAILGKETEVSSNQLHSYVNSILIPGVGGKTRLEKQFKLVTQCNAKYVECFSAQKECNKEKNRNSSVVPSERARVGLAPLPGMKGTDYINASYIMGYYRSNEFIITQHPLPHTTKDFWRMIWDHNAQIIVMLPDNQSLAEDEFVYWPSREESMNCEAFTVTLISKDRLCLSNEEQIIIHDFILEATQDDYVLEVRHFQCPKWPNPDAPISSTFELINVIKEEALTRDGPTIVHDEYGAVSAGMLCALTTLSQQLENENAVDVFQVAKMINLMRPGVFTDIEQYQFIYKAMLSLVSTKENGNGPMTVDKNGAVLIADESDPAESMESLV
# ASSAY COMMENT: flow cytometry, IgG1 on H929 cells
Quick reference for antibody-bound positive cells (%) among some binders
State the answer as a number, implicitly in %.

HW-1 chimeric rabbit-human IgG1 LA/LA/PG (antibody, V domains shown, Fc-silenced (L234A/L235A/P329G) IgG1, lambda; Alexa Fluor 647-labeled in single-step flow cytometry; Prototype of cluster C-1) VH: QSLEESGGGLFKPTDTLTLTCTASGFSLGSSYAISWVRQAPGKELEWIGTIDSGRAYYARWAKSRSTITRNTNENTVTLKMTSLTAADTATYFCARDLIPTYSQDIWGPGTLVTISS VL: SFVLTQPASVQVNLGQTVSLTCTADTLSRRYASWYQQKPGQAPVLLIYRDTSRPSGVPDRFSGSSSGNTATLTISGAQAGDEADYYCATSDGSGNSYQYVFGGGTQLTVTS	100
HW-25 chimeric rabbit-human IgG1 LA/LA/PG (antibody, V domains shown, Fc-silenced (L234A/L235A/P329G) IgG1, lambda; Alexa Fluor 647-labeled in single-step flow cytometry; Cluster C-1) VH: QSLEESGGRLVTPGTPLTLTCTVSGFSLSSYAMGWVRQAPGKGLEWIGIIDSRGSTYYATWAKGRFTISKTSTTVDLKITSPTTEDTATYFCAREDSYYYDSFNLWGPGTLVTVSS VL: SFVLTQPASVQVNLGQTVSLTCTADTLSRRYASWYQQKPGQAPVLLIYRDTSRPSGVPDRFSGSSSGNTATLTISGAQAGDEADYYCATSDGSGSSYQCVFGGGTQLTVTG	99.6

Hello, please tell me recorded antibody-bound positive cells (%) for this one: HW-17 chimeric rabbit-human IgG1 LA/LA/PG (antibody, V domains shown, Fc-silenced (L234A/L235A/P329G) IgG1, lambda; Alexa Fluor 647-labeled in single-step flow cytometry; Cluster C-1) VH: QSLGESRGRLVTPDETLTLTCTVSGIDLSSNAMSWVRQAPGEGLEWIGTINTGGRAYYASWAKGRFTISRTSTTVDLKMTSLTTEDTATYFCARERYSDGRAYDIWGPGTLVTISS VL: SFVLTQPASVQVNLGQTVSLTCTADTLSRRYASWYQQKPGQAPVLLIYTDSNRPSGIPDRFSGSSSGNTATLTISGAQAGDEADYYCATDDGSGSIYQYVFGGGTQLTVTG
100
